Measured pEC50 of individual entries
# System: Lassa fever virus (Josiah strain)
# Measurement notes: organism not typed
# Format: cell-based
# Condition: read-out: Activity vs. LFV EC50
pEC50: −log10 of the molar value.

Compound: C/C(=N\NC(=O)C1CC1c1ccccc1)c1ccc(NC(=O)c2ccco2)cc1 (stereo not drawn)
pEC50: > 7.70
--
Compound: C/C(=N/NC(=O)C1CC1c1ccccc1)c1ccc(NC(=O)C2CC2)cc1 (stereo not drawn)
pEC50: > 6.40
--
Compound: C/C(=N\NC(=O)C1CC1c1ccccc1)c1ccc(N)cc1 (stereo not drawn)
pEC50: 6.30

----------
Measured Activity against Lassa GP-pseudotyped-virus specificity of individual entries
# Tested on: Lassa GP-pseudotyped-virus
# Measurement notes: microbe, parasite or virus in culture
# Format: cell-based, Lassa fever virus
# Set-up: reference not given here
Result type: Activity against Lassa GP-pseudotyped-virus specificity

Compound: Cc1ccc2c(c1Br)C(=NNC(=O)C1CC1c1ccccc1)C(=O)N2 (centres unmarked)
Experimental value: >30

Compound: COc1ccc(/C(C)=N\NC(=O)C2CC2c2ccc(C(C)(C)C)cc2)cc1[N+](=O)[O-] (centres unmarked)
Experimental value: >800

Compound: C/C(=N\NC(=O)C1CC1c1ccccc1)c1ccc(NC(=O)c2ccco2)cc1 (centres unmarked)
Experimental value: >90,000

Compound: C/C(=N/NC(=O)C1CC1c1ccccc1)c1ccc(NC(=O)C2CC2)cc1 (centres unmarked)
Experimental value: >20,000

Compound: C/C(=N\NC(=O)C1CC1c1ccccc1)c1cccc(NC(=O)c2ccccc2F)c1 (centres unmarked)
Experimental value: >1.3

Compound: C/C(=N/NC(=O)C1CC1c1ccccc1)c1ccc(NC(=O)c2ccc(Cl)cc2Cl)cc1 (centres unmarked)
Experimental value: >4000

Compound: C/C(=N\NC(=O)CCc1ccccc1)c1cccc(N)c1
Experimental value: >18

Compound: CCOC(=O)C/C(C)=N/NC(=O)C1CC1c1ccccc1 (centres unmarked)
Experimental value: >18

Compound: O=C1Nc2ccc([N+](=O)[O-])cc2/C1=N/NC(=O)C1CC1c1ccccc1 (centres unmarked)
Experimental value: >40

Compound: COc1ccc(/C(C)=N/NC(=O)C2CC2c2ccccc2)cc1OC (centres unmarked)
Experimental value: >50

Compound: C/C(=N\NC(=O)C1CC1c1ccccc1)c1ccc(C)cc1 (centres unmarked)
Experimental value: >700

Compound: C/C(=N\NC(=O)C1CC1c1ccccc1)c1ccc(NC(=O)c2ccc(Cl)s2)cc1 (centres unmarked)
Experimental value: >4000

Compound: C/C(=N/NC(=O)C1CC1c1ccccc1)c1ccc(NC(=O)C(F)(F)F)cc1 (centres unmarked)
Experimental value: >4000

Compound: COc1ccc(/C(C)=N/NC(=O)C2CC2c2ccccc2)c(OC)c1 (centres unmarked)
Experimental value: 180

Compound: COc1ccc(C(C)=NNC(=O)C2CC2c2ccccc2)cc1 (stereo in doubt)
Experimental value: >4000

Compound: C/C(=N\NC(=O)C1CC1c1ccccc1)c1ccc(N)cc1 (centres unmarked)
Experimental value: >2000

Compound: C/C(=N/NC(=O)C1CC1c1ccc(C(C)(C)C)cc1)c1ccc(F)cc1 (centres unmarked)
Experimental value: 650

----------
# Tested on: Lassa GP-pseudotyped-virus
# Measurement notes: microbe, parasite or virus in culture
# Format: cell-based, Lassa fever virus
# Parameters: reference not given here
Result type: Activity against Lassa GP-pseudotyped-virus specificity

Compound: CC(C)/C(=N\NC(=O)C1CC1c1ccccc1)c1ccccc1 (centres unmarked)
Comparison symbol: =
Experimental value: 60
--
Compound: C/C(=N\NC(=O)C1CC1c1ccccc1)c1ccc(N(C)C)cc1 (centres unmarked)
Comparison symbol: >
Experimental value: 4000
--
Compound: C/C(=N\NC(=O)C1CC1c1ccccc1)c1ccccc1O (centres unmarked)
Comparison symbol: >
Experimental value: 14
--
Compound: C/C(=N/NC(=O)C1CC1c1ccccc1)c1cccs1 (centres unmarked)
Comparison symbol: =
Experimental value: 2

----------
Measured Activity against Lassa GP-pseudotyped-virus specificity of individual entries
# System: Lassa GP-pseudotyped-virus
# Measurement notes: microbe, parasite or virus in culture
# Type: cell-based, Lassa fever virus
# Set-up: reference not given here
Result type: Activity against Lassa GP-pseudotyped-virus specificity

Molecule: C/C(=N\NC(=O)C1CC1c1ccccc1)c1ccc(C2CCCCC2)cc1 (stereo not shown)
Experimental value: >400
//
Molecule: C/C(=N\NC(=O)C1CC1c1ccccc1)C1CC1 (stereo not shown)
Experimental value: >2
//
Molecule: C/C(=N/NC(=O)C1CC1c1ccc(C(C)(C)C)cc1)c1cccc(NC(=O)c2ccccc2F)c1 (stereo not shown)
Experimental value: >15
//
Molecule: CC(=O)Nc1ccc(/C(C)=N/NC(=O)C2CC2c2ccccc2)cc1 (stereo not shown)
Experimental value: >3000
//
Molecule: O=C1Nc2ccccc2/C1=N\NC(=O)C1CC1c1ccccc1 (stereo not shown)
Experimental value: >700
//
Molecule: C/C(=N\NC(=O)C1CC1c1ccccc1)c1ccc(-c2ccccc2)cc1 (stereo not shown)
Experimental value: >8000
//
Molecule: C/C(=N/NC(=O)C1CC1c1ccccc1)c1ccccc1Cl (stereo not shown)
Experimental value: 20
